testTarget: catalytic kinase (JH1) domain of human JAK1 (Homo sapiens, UniProt P23458)
Construct: 4 nM of recombinant JAK1 kinase domain is used to phosphorylate
Sequence (P23458 875-1153 limits assumed): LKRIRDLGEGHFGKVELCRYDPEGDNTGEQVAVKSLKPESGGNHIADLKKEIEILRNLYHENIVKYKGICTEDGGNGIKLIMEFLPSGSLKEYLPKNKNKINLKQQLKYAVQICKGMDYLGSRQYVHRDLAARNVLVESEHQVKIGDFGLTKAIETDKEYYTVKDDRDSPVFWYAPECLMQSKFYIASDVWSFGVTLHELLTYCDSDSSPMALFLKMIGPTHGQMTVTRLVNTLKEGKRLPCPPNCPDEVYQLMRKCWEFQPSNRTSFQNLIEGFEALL
assayProtocol: ADP-Glo kinase assay, JAK1 kinase domain
Assay type: biochemical
assayEndpoint: IC50 (µM)
Write the answer as a number in µM, unit excluded.

Lookup: For the compound shown here, N#CC1CC(N2C3CCC2CN(c2ccnn4cc(-c5ccnnc5)cc24)C3)C1 (stereo not shown) , give the reported IC50.
Found: 0.13

Lookup: For the compound shown here, COc1cc(-c2cc3c(N4CC5CCC(C4)N5C4CC(C#N)C4)ccnc3[nH]2)ccn1 (stereo not shown) , give the reported IC50.
Found: 0.0079

Lookup: For the compound shown here, Cc1cc(-c2cc3c(N4CC5CCC(C4)N5[C@H]4C[C@H](C#N)C4)ccnn3c2)on1 , give the reported IC50.
Found: 0.795

Lookup: For the compound shown here, Cn1cc(-c2cc3c(N4CC5CCC(C4)N5[C@H]4C[C@@H](S(C)(=O)=O)C4)ccnn3c2)cn1 , give the reported IC50.
Found: 0.435

---

testTarget: catalytic kinase (JH1) domain of human JAK2 (Homo sapiens, UniProt O60674)
Construct: Catalytic activities of recombinant JAK2, JAK3 and TYK2 kinase domain
Sequence (O60674 849-1124 limits assumed): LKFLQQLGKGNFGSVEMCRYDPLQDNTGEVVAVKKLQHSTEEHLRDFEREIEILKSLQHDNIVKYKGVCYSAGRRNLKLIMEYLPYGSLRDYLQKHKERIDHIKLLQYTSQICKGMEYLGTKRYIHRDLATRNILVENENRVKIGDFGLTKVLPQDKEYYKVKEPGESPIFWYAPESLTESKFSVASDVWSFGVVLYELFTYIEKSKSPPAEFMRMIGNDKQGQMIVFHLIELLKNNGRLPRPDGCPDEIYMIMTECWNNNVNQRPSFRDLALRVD
assayProtocol: ADP-Glo kinase assay, JAK2 kinase domain
Assay type: biochemical
assaySetup: 0.2 nM recombinant JAK2 kinase domain, 50 μM JAK3-974 peptide, 15 μM ATP, 100 minutes; read-out: JAK2 biochem IC50 (nM) Mean
Structures can show the parent of a compound that is named as a salt.
Each record is given true if its reported IC50 is strictly below 300 nM. Records at or above 300 nM are given false.

Lookup: Lab note: IC50 threshold 300 nM. Does this molecule come in strictly under it? c1cc(-c2cc3c(N4CC5CCC(C4)N5C4COC4)ccnn3c2)cnn1
Found: false

Lookup: Lab note: IC50 threshold 300 nM. Does this molecule come in strictly under it? COCC[C@]1(C#N)C[C@H](N2C3CCC2CN(c2ccnn4cc(-c5cnn(C)c5)cc24)C3)C1
Found: false

Lookup: Lab note: IC50 threshold 300 nM. Does this molecule come in strictly under it? Cn1cc(-c2cc3c(N4CC5CCC(C4)N5C4COC4)ccnn3c2)cn1
Found: true

Lookup: Lab note: IC50 threshold 300 nM. Does this molecule come in strictly under it? Cn1cc(-c2cc3c(N4CC5CCC(C4)N5C4CC(O)C4)ccnn3c2)cn1 (stereo not shown)
Found: false

Lookup: Lab note: IC50 threshold 300 nM. Does this molecule come in strictly under it? COC[C@]1(C#N)C[C@@H](N2C3CCC2CN(c2ccnn4cc(-c5cnn(C)c5)cc24)C3)C1
Found: true

Lookup: Lab note: IC50 threshold 300 nM. Does this molecule come in strictly under it? COC1CC(N2C3CCC2CN(c2ccnn4cc(-c5cnn(C)c5)cc24)C3)C1 (stereo not shown)
Found: false

Lookup: Lab note: IC50 threshold 300 nM. Does this molecule come in strictly under it? Cn1cc(-c2cc3c(N4CC5CCC(C4)N5C4CC(O)(C(F)(F)F)C4)ccnn3c2)cn1 (stereo not shown)
Found: false

Lookup: Lab note: IC50 threshold 300 nM. Does this molecule come in strictly under it? Cn1cc(-c2cc3c(N4CC5CCC(C4)N5[C@H]4CC[C@H]4O)ccnn3c2)cn1 (racemic)
Found: false

Lookup: Lab note: IC50 threshold 300 nM. Does this molecule come in strictly under it? Cn1cc(-c2cc3c(N4CC5CCC(C4)N5[C@H]4C[C@H](CC#N)C4)ccnn3c2)cn1
Found: false

Lookup: Lab note: IC50 threshold 300 nM. Does this molecule come in strictly under it? COCC[C@]1(C#N)C[C@@H](N2C3CCC2CN(c2ccnn4cc(-c5cnn(C)c5)cc24)C3)C1
Found: true

Lookup: Lab note: IC50 threshold 300 nM. Does this molecule come in strictly under it? CO[C@H]1C[C@@H](N2C3CCC2CN(c2ccnc4[nH]c(-c5cnn(C)c5)nc24)C3)C1
Found: false

Lookup: Lab note: IC50 threshold 300 nM. Does this molecule come in strictly under it? Cn1cc(-c2cc3c(N4CC5CCC(C4)N5[C@H]4C[C@@](C)(C#N)C4)ccnn3c2)cn1
Found: true

Lookup: Lab note: IC50 threshold 300 nM. Does this molecule come in strictly under it? Cn1cc(-c2cc3c(N4CC5CCC(C4)N5[C@H]4C[C@H](O)C4)ccnn3c2)cn1
Found: false

Lookup: Lab note: IC50 threshold 300 nM. Does this molecule come in strictly under it? COc1cc(-c2cc3c(N4CC5CCC(C4)N5C4CC(C(F)F)C4)ccnc3[nH]2)ccn1 (stereo not shown)
Found: true

Lookup: Lab note: IC50 threshold 300 nM. Does this molecule come in strictly under it? Cn1cc(-c2nc3c(N4CC5CCC(C4)N5[C@H]4C[C@@H](C#N)C4)ccnc3[nH]2)cn1
Found: true

Lookup: Lab note: IC50 threshold 300 nM. Does this molecule come in strictly under it? Cn1cc(-c2cc3c(N4CC5CCC(C4)N5[C@H]4C[C@H](C#N)C4)ncnc3[nH]2)cn1
Found: false

Lookup: Lab note: IC50 threshold 300 nM. Does this molecule come in strictly under it? Cn1cc(-c2nc3c(N4CC5CCC(C4)N5[C@H]4CC[C@H]4O)ccnc3[nH]2)cn1 (racemic)
Found: false

Lookup: Lab note: IC50 threshold 300 nM. Does this molecule come in strictly under it? COC[C@]1(C#N)C[C@H](N2C3CCC2CN(c2ccnn4cc(-c5cnn(C)c5)cc24)C3)C1
Found: false

Lookup: Lab note: IC50 threshold 300 nM. Does this molecule come in strictly under it? Cn1cc(-c2nc3c(N4CC5CCC(C4)N5C4CNC4)ccnc3[nH]2)cn1 [Example 11, hydrochloride]
Found: false

Lookup: Lab note: IC50 threshold 300 nM. Does this molecule come in strictly under it? CO[C@H]1C[C@@H](N2C3CCC2CN(c2ccnn4cc(-c5cnn(C)c5)cc24)C3)C1
Found: false

Lookup: Lab note: IC50 threshold 300 nM. Does this molecule come in strictly under it? Cn1cc(-c2cc3c(N4CC5CCC(C4)N5[C@H]4C[C@@H](C#N)C4)ccnc3[nH]2)cn1
Found: true

Lookup: Lab note: IC50 threshold 300 nM. Does this molecule come in strictly under it? COc1cc(-c2cc3c(N4CC5CCC(C4)N5C4COC4)ccnc3[nH]2)ccn1
Found: true

Lookup: Lab note: IC50 threshold 300 nM. Does this molecule come in strictly under it? N#C[C@H]1C[C@@H](N2C3CCC2CN(c2ccnn4cc(-c5cnn(C(F)F)c5)cc24)C3)C1
Found: true

Lookup: Lab note: IC50 threshold 300 nM. Does this molecule come in strictly under it? Cn1cc(-c2cc3c(N4CC5CCC(C4)N5C4(CC#N)COC4)ccnn3c2)cn1
Found: true

Lookup: Lab note: IC50 threshold 300 nM. Does this molecule come in strictly under it? Cn1cc(-c2cc3c(N4CC5CCC(C4)N5[C@H]4C[C@@H](CC#N)C4)ccnn3c2)cn1
Found: false

Lookup: Lab note: IC50 threshold 300 nM. Does this molecule come in strictly under it? Cn1cc(-c2nc3c(N4CC5CCC(C4)N5[C@H]4C[C@H](C#N)C4)ccnc3[nH]2)cn1
Found: true

Lookup: Lab note: IC50 threshold 300 nM. Does this molecule come in strictly under it? Cc1cc(-c2cc3c(N4CC5CCC(C4)N5C4CC(C#N)C4)ccnn3c2)cnn1 (stereo not shown)
Found: true

Lookup: Lab note: IC50 threshold 300 nM. Does this molecule come in strictly under it? Cn1cc(-c2nc3c(N4CC5CCC(C4)N5[C@H]4C[C@@](C)(C#N)C4)ccnc3[nH]2)cn1
Found: true

Lookup: Lab note: IC50 threshold 300 nM. Does this molecule come in strictly under it? Cn1cc(-c2nc3c(N4C[C@H]5CC[C@@H](C4)N5C4CC(C(F)F)C4)ccnc3[nH]2)cn1 (stereo partly shown)
Found: true

Lookup: Lab note: IC50 threshold 300 nM. Does this molecule come in strictly under it? Cn1cc(-c2cc3c(N4CC5CCC(C4)N5C4CC(C#N)C4)ccnc3[nH]2)cn1 (stereo not shown)
Found: true
